- ASSAY INFO: Fluorescence quenching in HTS buffer with 20 uM 7-diethylamino-3-(4'-maleimidyl-phenyl)-4-methylcoumarin assessed as fluorescence signal reduction at 10 uM after 10 mins
- Type: physicochemical
RECORDED ENDPOINT: Activity

O=C1C=CC(=O)N1c1ccccc1    Not Active
CC(C)(C)c1ccc(S(=O)(=O)Nc2cc(SCC(=O)O)c(O)c3ccccc23)cc1    Active
O=S(=O)(Nc1cc(Br)c(O)c2ccccc12)c1ccc(F)cc1    Not Active
O=C(O)CSc1cc(NS(=O)(=O)c2cccc([N+](=O)[O-])c2)c2ccccc2c1O    Active
O=[N+]([O-])c1ccc(Sc2nnnn2-c2ccccc2)c2nonc12    Not Active
Cc1occc1-c1nnc(SC2=CS(=O)(=O)c3ccccc32)o1    Not Active
O=S(=O)(Nc1cc(Cl)c(O)c2ccccc12)c1ccc(Br)cc1    Not Active
COc1ccc(-c2nnc(Sc3ccc([N+](=O)[O-])c4nonc34)[nH]2)cc1    Not Active

Asked: State the recorded Activity for this entry: COc1ccc(N2C(=O)CC(Sc3nnc(-c4ccccc4)o3)C2=O)cc1 (stereo not given)
Given back: Not Active

Asked: Then "O=[N+]([O-])c1c(Sc2nnnn2-c2ccccc2)cc(Cl)c2nonc12" ?
Given back: Not Active
